Below, each of the molecules is paired with its reported IC50 value.
# Test system: CWR22R
# test name: Cytotoxicity against human 22Rv1 cells assessed as reduction in cell viability after 72 hrs by CellTiter96 AQueous one solution cell proliferation assay
# Type: functional, cell-based
# condition info: 22Rv1, 72 h
Provide the reading as a plain figure in nM.

A selection of reference data follows.
>>> observed_value("CO[C@H]1C=CC(=O)[C@]2(C)[C@H]3CC[C@]4(C)[C@](O)([C@@](C)(O)[C@H]5CC(C)=C(C)C(=O)O5)CC[C@@]4(O)[C@@H]3C[C@H]3O[C@]132")
240
>>> observed_value("CC1=C(C)[C@H](O)[C@H]([C@](C)(O)[C@]2(O)CC[C@@]3(O)[C@@H]4C[C@H]5O[C@]56CC=CC(=O)[C@]6(C)[C@H]4CC[C@]23C)OC1=O")
890

Form field IC50 for item `CC1=C(C)C(=O)O[C@@H]([C@](C)(O)[C@]2(O)CC[C@@]3(O)[C@@H]4C[C@H]5O[C@]56[C@@H](O)C=CC(=O)[C@]6(C)[C@H]4CC[C@]23C)C1` on CWR22R: 90

Form field IC50 for item `COc1cccc2c1C(=O)c1c(O)c3c(c(O)c1C2=O)C[C@@](O)(C(=O)CO)C[C@@H]3O[C@H]1C[C@H](N)[C@H](O)[C@H](C)O1` on CWR22R: 20

Form field IC50 for item `CC1=C(C)C(=O)O[C@@H]([C@](C)(O)[C@]2(O)CC[C@@]3(O)[C@@H]4CC=C5[C@@H](O)C=CC(=O)[C@]5(C)[C@H]4CC[C@]23C)C1` on CWR22R: 70
